System: MS2 coat protein
protocol description: apparent KD of MS2 coat protein, switch OFF state (with FMN for OFF switches, without FMN for ON switches); designed switch direction (-1 OFF switch, 1 ON switch): 1; higher = weaker reporter binding
conditions: FMN input: 0 or 200 uM; Eterna round: R93 (includes R88 designs)
Hi there, I'd appreciate the recorded apparent KD of MS2 coat protein for every entry that follows.
Kindly provide the numeric value in nM only, without the unit symbol.

[in] Provide one value: measured apparent KD of MS2 coat protein of GAAAAACAUGAGGAUCACCCAUGUAAAAAUAUGGGAGGAUAUUCAAAGACGAAAGGGAAAGAAGAAGGCCUAAAAG [Garnet 4]
[out] 1300

[in] Provide one value: measured apparent KD of MS2 coat protein of AAAACACAUGAGGAUCACCCAUGUGAAAACAUGGGAGGAUAUGCAUGGAAAACAUGCUAUGCAGAAGGCUCAUGUG [SS1 - 7]
[out] 62.6

[in] Provide one value: measured apparent KD of MS2 coat protein of AAACAGAUAGGACAGGAUAUGUCGUGAUAAACAUGAGGAUCACCCAUGUGAGACAUCACGUAAUCGCAGAAGGGUCCCGUCUUAC [Usonsoave]
[out] 12.7

[in] Provide one value: measured apparent KD of MS2 coat protein of AAGAAACAUGAGGAUCACCCAUGUAAAUUUAAGAGAGGAUAUCGUACAUGGAAGAUUUAACGAGAAGGCUCUAGAA [Pariah 2 (MS2 Riboswitches - Same State 1)]
[out] 36.9

[in] Provide one value: measured apparent KD of MS2 coat protein of AGAAAUAAAGCUGAGGAUAUCCAAAACCAAACAUGAGGAUCACCCAUGUAAAAGAAAAUAAAAUGGGAGAAGGCAGCAAAUAAGA [Designing denovo 8]
[out] 21.9

[in] Provide one value: measured apparent KD of MS2 coat protein of AGAAUAAAAACAGAGGAUAUCCAAAAGAAAACAUGAGGAUCACCCAUGUAAAAGAAAAUAAAAUGGGAGAAGGCUGAAAAAAAGA [Mat - Same State 2 - Eli mod - D98]
[out] 39.3

====

Test system: MS2 coat protein
protocol description: apparent KD of MS2 coat protein; designed switch direction (-1 OFF switch, 1 ON switch): -1; higher = weaker reporter binding
conditions: input ligand: none
Label label 1 for high-side apparent KD of MS2 coat protein (at or above 20 nM) and label 0 for low-side apparent KD of MS2 coat protein (below it).

[in] In plain terms: is recorded apparent KD of MS2 coat protein at least 20 nM for AGCUGUGGCCGAGGAUAUGACAUGAGGAUCACCCAUGUACAUAAUUAGGCCUGGUAACAGGCUCUUCAGAAGGCGGUCUCAGCA [Eli eng2 - 006] (Eterna round: R96, puzzle: Exclusion NG 2) ?
[out] label 0

[in] In plain terms: is recorded apparent KD of MS2 coat protein at least 20 nM for GAGUGAAGUGCAGGAUAUCUAGAAGGAAGAAGGAGGAAACAUGAGGAUCACCCAUGUAAUCCAUAAGAGAAGGGCGGAGAGGAG [An ugly monster] (Eterna round: R96, puzzle: Exclusion NG 2) ?
[out] label 0

[in] In plain terms: is recorded apparent KD of MS2 coat protein at least 20 nM for GAUUAACAUGAGGAUCACCCAUGUGAGGAUAUGGAAUGGCUCAUUGUUUGAUUCCCGUCUAGAAGGCACAUCUU [1986#7] (Eterna round: R97, puzzle: Exclusion 1) ?
[out] label 1

[in] In plain terms: is recorded apparent KD of MS2 coat protein at least 20 nM for UCUGUUGAAGGAUAUGCGUAACGAGUUACGGCUCAAGGUCUACAUGAGGAUCACCCAUGUAGAAGGUCAUCAGA [EX2 #71] (Eterna round: R97, puzzle: Exclusion 2) ?
[out] label 0

[in] In plain terms: is recorded apparent KD of MS2 coat protein at least 20 nM for AAACCCUCCGUAAGGAUAUGCGCAGGUAAACCGCUGUAGAAGGUACAUGAGGAUCACCCAUGUUGGACCGUGGA [Eternabot (Original) Solution 35] (Eterna round: R97, puzzle: Brourd's mod of Exclusion 4) ?
[out] label 1

====

Hi there, I'd appreciate the recorded apparent KD of MS2 coat protein for every entry that follows.
System: MS2 coat protein
protocol description: apparent KD of MS2 coat protein; higher = weaker reporter binding
conditions: Eterna round: R107; input ligand: arginine 13.2 mM
Kindly provide the numeric value in nM only, without the unit symbol.

[in] Look up MS2 coat protein data: apparent KD of MS2 coat protein of CACAUGAGGAUCACCCAUGUCUGAACUGAAGGAGCGCUAAACAAGGCAGGUAGGUCGCGGAAUCCCGUGUGCAUAUGCACACGGG [9.Z] , then report it.
[out] 24.1

[in] Look up MS2 coat protein data: apparent KD of MS2 coat protein of GCUGUACCAUGAAGGAGCGCUUUAAUUAUAGAAGAUACAUGAGGAUCACCCAUGUUCCUCGAGCAGGUAGGUCGCAUGGUACAGC [SSAB #18] , then report it.
[out] 25.4

[in] Look up MS2 coat protein data: apparent KD of MS2 coat protein of GGAUAGGACAGAAGGAGCGUGAGAUGCAAAGCUUCAUUCCUCACAUGAGGAUCACCCAUGUCACAGGUAGGUCGCUGUCCUAUCG [#19 Exclusion - Arginine B] , then report it.
[out] 78.6

[in] Look up MS2 coat protein data: apparent KD of MS2 coat protein of AACAUGAGGAUCACCCAUGUCCCAUGUGAACGAGGACCGGUACGGCCGCCACUCGACUGAGGCGGCACAUGAGGAUCACCCACAU [whbob_SS_trypto A_2s12] , then report it.
[out] 151

[in] Look up MS2 coat protein data: apparent KD of MS2 coat protein of GGUUACUCUACGGCCGCCACUGUAAAGUAAAGAUUACUGUACAUGACAUGAGGAUCACCCAUGUACAGGACCGGGUAGUGUAACC [Tryptophan B 15] , then report it.
[out] 32.2

[in] Look up MS2 coat protein data: apparent KD of MS2 coat protein of CAAUAUAUAUGAAGGAGCGACAUGAGGAUCACCCAUGUCUACCACGUCGAAAGACGCUCAUGUCAGGUAGGUCGCAUAUAUAUUG [Astros-Eli-mod4] , then report it.
[out] 71.9

[in] Look up MS2 coat protein data: apparent KD of MS2 coat protein of UCCUCCUCCGCAAGGAGGAGGAGUUGCGAUACCAGCCCGGAAACGGGCCCUUGGCAGCGCACAUGAGGAUCACCCAUGUCAUGUU [#1 Exclusion - Theophylline A Attempt #8 (HarryS)] , then report it.
[out] 14.6

[in] Look up MS2 coat protein data: apparent KD of MS2 coat protein of AAGAACCAGACGGCCGCCACUGGCCAGACAGGGUUCAUGGAAACAUGAGGAUCACCCAUGUCUUCCAGGACCGGGUCUGAAGAGG [Esbiisin] , then report it.
[out] 8.61

[in] Look up MS2 coat protein data: apparent KD of MS2 coat protein of UCGCCCAGAAAGGAUUGCUGGGAUAUGGAAGGAGCGCUGAUGCCAGCAGGUAGGUCGCCAACGGACAUGAGGAUCACCCAUGUAC [Same State - Arginine A (Freestyle 6)] , then report it.
[out] 16.7

[in] Look up MS2 coat protein data: apparent KD of MS2 coat protein of UUAUAUACUACGGCCGCCACUGAACAUGAGGAUCACCCAUGUAAUGUUCAGAUUUUUUUUUUUUACAGGACCGGGUAGAAUUAAA [Tryptophan B 2] , then report it.
[out] 67.9

[in] Look up MS2 coat protein data: apparent KD of MS2 coat protein of CGAUAUAAGACGGCCGCCACUAUUAAGUAACAAAAUAAACAUGAGGAUCACCCAUGUACAUGGGAUAGGACCGGGUCCAAUAACG [A1] , then report it.
[out] 48.3

[in] Look up MS2 coat protein data: apparent KD of MS2 coat protein of GGUUGGUGUAGAGAUAUAUUGAUUACUGAAGGAGCGGGACGAAACCCAGGUAGGUCGCAGAGAUCCACAUGAGGAUCACCCAUGU [!0.M] , then report it.
[out] 31.6

====

Tested on: MS2 coat protein
protocol description: apparent KD of MS2 coat protein; designed switch direction (-1 OFF switch, 1 ON switch): 1; higher = weaker reporter binding
conditions: input ligand: FMN 200 uM
readout kind: apparent KD of MS2 coat protein (nM)
Kindly provide the numeric value in nM only, without the unit symbol.

[in] Provide one value: measured apparent KD of MS2 coat protein of GUAGCAUACCGAGGAUAUUCAUAUUAUACAUGAGGAUCACCCAUGUGGCCACAUUAGUGGCCUUGGGAGAAGGCGGAAUGCUAC [Xeonanis - 20 Mod37] (Eterna round: R96, puzzle: Same State NG 2)
[out] 99.2

[in] Provide one value: measured apparent KD of MS2 coat protein of AUAGUUUCCGAAGGAUAUGAUGAGGAUCACCCAUCAGAAGGUUGGCUAUUGGGCUGACAUGAGGAUCACCCAUGUUCUGGAGUU (Eterna round: R96, puzzle: Same State NG 1)
[out] 39.8

[in] Provide one value: measured apparent KD of MS2 coat protein of CCCGCGUUUCGCGCCUACAUGAGGAUCACCCAUGUUUGUAGGCAGGAUAUCGUCCGCUCUGCGGGCGAGAAGGGCUGUCGUGGU [salish99_SSNG3_R04_030] (Eterna round: R96, puzzle: Same State NG 3)
[out] 65.7

[in] Provide one value: measured apparent KD of MS2 coat protein of AUUCUUAAUGCAGGAUAUGAUUAACAUGAGGAUCACCCAUGUGGUGUUGUGAGUAAGGAGAGUGAUCAGAAGGGCAUUUUUUUU [JMF's solution 32] (Eterna round: R96, puzzle: Same State NG 2)
[out] 316

[in] Provide one value: measured apparent KD of MS2 coat protein of UAUGAAUUACAAGGAUAUUAAUAACAUGAGGAUCACCCAUGUGGCUGUGAGAGUUAGAUAAGCUAUAAGAAGGUGUGUGUGUUU [JR_SSNG2_Sub093] (Eterna round: R96, puzzle: Same State NG 2)
[out] 93.1
